Give measured INHIBITION for each item. Keep answers brief.
system: Plasmodium berghei; test: Screen against P. berghei liver stage (PbLuc), transformed with Luciferase, at 10uM; format: functional, HepG2; conditions: tested at 10 uM
About 8,600 (12%) of roughly 69,000 compounds showed an effect of 50% or more. The sample as a whole holds a higher share of strong results than the screen did.
# value in %; strip the unit string

Req: Which value of INHIBITION has been reported for CN(Cc1ccco1)Cc1cnc2n1CCN(S(C)(=O)=O)CC2 in the records?
Resp: 31.9

Req: Which value of INHIBITION has been reported for O=C(c1cncc(NCC2COc3ccccc3C2)n1)N1CCCCC1 (stereo not drawn) in the records?
Resp: 0.348

Req: Which value of INHIBITION has been reported for CN(C)c1ncccc1CNS(=O)(=O)c1ccccc1Cl in the records?
Resp: -4.16

* * *

system: Plasmodium berghei; test: Screen against P. berghei liver stage (PbLuc), transformed with Luciferase, at 10uM; assay type: functional, HepG2; conditions: tested at 10 uM
Out of some 69,000 compounds screened, about 8,600 (12%) showed an effect of 50% or more. The sample holds strong results, similar compounds and a random draw of the others, so the mix is not that of the screen.
Rule: INHIBITION under 20% gives rule not met, otherwise rule met.

Req: Evaluate CN1CCCC(Cc2cc(N(C)C)ncn2)C1 (stereo not given) : INHIBITION at minimum 20%?
Resp: rule met

Req: Evaluate c1csc(CN2Cc3nc(CN4CCCC4)oc3C2)c1 : INHIBITION at minimum 20%?
Resp: rule met

Req: Evaluate Cc1ncsc1C(=O)OCC1CCN(c2ccccc2)C1 (stereo not given) : INHIBITION at minimum 20%?
Resp: rule met

Req: Evaluate CC(C)c1nc(C2CCCN2Cc2cc(=O)n(C)c(=O)n2C)no1 (stereo not given) : INHIBITION at minimum 20%?
Resp: rule met

Req: Evaluate COCCn1cnnc1CNc1cc(C)nc2c(C)c(C)nn12 : INHIBITION at minimum 20%?
Resp: rule not met

Req: Evaluate O=C(c1cscn1)N1CCCC(n2cncn2)C1 (stereo not given) : INHIBITION at minimum 20%?
Resp: rule not met

Req: Evaluate O=S(=O)(C1CC1)N1C[C@H](Oc2ccccn2)[C@H]2OCCC[C@H]21 : INHIBITION at minimum 20%?
Resp: rule not met

Req: Evaluate CCS(=O)(=O)N1C[C@H]2CN(Cc3cccc(C)c3)C(=O)[C@H]2C1 : INHIBITION at minimum 20%?
Resp: rule not met

Req: Evaluate Cn1ncc(C(=O)OCC2CCN(c3ccccc3)C2)c1C(F)F (stereo not given) : INHIBITION at minimum 20%?
Resp: rule not met

Req: Evaluate Cc1ncc(C(=O)OCC2CCN(c3ccccc3)C2)s1 (stereo not given) : INHIBITION at minimum 20%?
Resp: rule met

Req: Evaluate CCCC1c2cccn2CCN1C(=O)c1cc(CC)no1 (stereo not given) : INHIBITION at minimum 20%?
Resp: rule met

Req: Evaluate O=C(O)c1nnn(-c2cccc(C(F)(F)F)c2)c1-c1ccncc1 : INHIBITION at minimum 20%?
Resp: rule met

Req: Evaluate CC(=O)N1CC[C@@]2(O)CCCC[C@H]2[C@@H]1c1ccccc1 : INHIBITION at minimum 20%?
Resp: rule met

Req: Evaluate Cc1nn(C)c(C)c1-c1ccc(=O)n(C(C)C(=O)NC2CCCC2)n1 (stereo not given) : INHIBITION at minimum 20%?
Resp: rule met

Req: Evaluate COCCN1CCN(c2ccc3ccc(C(=O)NC4CC4)cn23)CC1 : INHIBITION at minimum 20%?
Resp: rule not met

Req: Evaluate CC(C)NC(=O)c1nnn(-c2cccc(C(F)(F)F)c2)c1C1CC1 : INHIBITION at minimum 20%?
Resp: rule met

Req: Evaluate Cc1nn(C)c(Cl)c1C1CCCN1C(=O)c1csnn1 (stereo not given) : INHIBITION at minimum 20%?
Resp: rule not met

Req: Evaluate CCN(Cc1noc(C2CCC2)n1)C(=O)c1cnc2ccccc2c1 : INHIBITION at minimum 20%?
Resp: rule not met

Req: Evaluate O=S(=O)(c1cccs1)N1Cc2nc(COCC3CC3)oc2C1 : INHIBITION at minimum 20%?
Resp: rule met

Req: Evaluate O=C(O)c1nnn(-c2ccc(C(F)(F)F)cc2)c1-c1ccncc1 : INHIBITION at minimum 20%?
Resp: rule not met

Req: Evaluate CNc1oc(-c2cc(S(=O)(=O)N3CCCCCC3)c(C)o2)nc1C#N : INHIBITION at minimum 20%?
Resp: rule met

Req: Evaluate CC(=O)NCCNC(=O)c1nc(C2CC2)n(-c2ccccc2Cl)n1 : INHIBITION at minimum 20%?
Resp: rule not met

Req: Evaluate COCCN1CCc2ccccc2NCCC1=O : INHIBITION at minimum 20%?
Resp: rule not met

Req: Evaluate O=C(O)c1nnn(-c2ccc(Cl)c(C(F)(F)F)c2)c1-c1ccncc1 : INHIBITION at minimum 20%?
Resp: rule not met

Req: Evaluate O=S(=O)(c1cccs1)N1Cc2nc(CN3CCCC3)oc2C1 : INHIBITION at minimum 20%?
Resp: rule met

Req: Evaluate O=S1(=O)NC(c2ccnc(N3CCCC3)n2)=Nc2ccccc21 : INHIBITION at minimum 20%?
Resp: rule met

Req: Evaluate O=C(NC1CC1)c1nnn(-c2cccc(C(F)(F)F)c2)c1C1CC1 : INHIBITION at minimum 20%?
Resp: rule not met

Req: Evaluate CC(C)(C)NC(=O)NC(=O)CN1C=Nc2ccccc2S1(=O)=O : INHIBITION at minimum 20%?
Resp: rule met

Req: Evaluate COCc1ccccc1C(=O)OCc1noc(C)n1 : INHIBITION at minimum 20%?
Resp: rule not met

* * *

tested on: Plasmodium berghei; assay: Screen against P. berghei liver stage (PbLuc), transformed with Luciferase, at 10uM; type: functional, HepG2; settings: tested at 10 uM
Among all 69,000 compounds or so, about 8,600 (12%) showed an effect of 50% or more. The full list was thinned out, with strong results kept by preference.
Rule: INHIBITION under 20% gives rule not met, otherwise rule met.

Req: Evaluate CCO[C@H]1CN(CC2CCOCC2)[C@@H]2CCCO[C@H]12 : INHIBITION at minimum 20%?
Resp: rule met

Req: Evaluate Cc1ccccc1NC(=O)N1CCN(Cc2noc(C3CC3)n2)CC1 : INHIBITION at minimum 20%?
Resp: rule met

Req: Evaluate CC(C)C1=NOC2(CCN(S(C)(=O)=O)CC2)C1 : INHIBITION at minimum 20%?
Resp: rule not met

Req: Evaluate COCc1noc(C2(c3ccc(F)cc3)CCC2)n1 : INHIBITION at minimum 20%?
Resp: rule met

Req: Evaluate Cc1nccn1C1CCCN(C(=O)CCNc2ncccn2)C1 (stereo unspecified) : INHIBITION at minimum 20%?
Resp: rule not met

Req: Evaluate Cc1ccc(C(=O)N2CCC3(CC2)COCCN(S(C)(=O)=O)C3)cc1C : INHIBITION at minimum 20%?
Resp: rule not met

Req: Evaluate CSc1cccc(CN(C)C(=O)CN2CCN(c3ncccn3)CC2)c1 : INHIBITION at minimum 20%?
Resp: rule not met

Req: Evaluate Cc1ccc(S(=O)(=O)N2CCCCC(N3CCN(C)CC3)C2)cc1F (stereo unspecified) : INHIBITION at minimum 20%?
Resp: rule met

Req: Evaluate Cc1ccc(S(=O)(=O)N2CCC(N3CCCCC3)CC2)cc1C : INHIBITION at minimum 20%?
Resp: rule met

Req: Evaluate CN1CCCN(S(=O)(=O)c2cccc(C(=O)N3CCCCCC3)c2)CC1 : INHIBITION at minimum 20%?
Resp: rule met

Req: Evaluate Cc1cn2c(n1)C(CNCc1ccc(C)s1)CCC2 (stereo unspecified) : INHIBITION at minimum 20%?
Resp: rule met

Req: Evaluate O=C(c1sccc1C1CC1)N1CCCN(c2cccnn2)CC1 : INHIBITION at minimum 20%?
Resp: rule not met

Req: Evaluate Cc1nc(C(C)C)sc1C(=O)NS(=O)(=O)c1ccc(C#N)cc1 : INHIBITION at minimum 20%?
Resp: rule met

Req: Evaluate O=C1COC2(CCN(Cc3ccoc3)CC2)CN1c1ccccc1 : INHIBITION at minimum 20%?
Resp: rule not met

Req: Evaluate COCC(=O)N1CC[C@H]2N(C)CC[C@@]2(C(=O)Nc2ccccc2)CC1 : INHIBITION at minimum 20%?
Resp: rule not met

Req: Evaluate CC(=O)N(C)CC(=O)NCC1CCN(c2cc(Cl)ccc2C)C1 (stereo unspecified) : INHIBITION at minimum 20%?
Resp: rule not met

Req: Evaluate Cc1ccc(S(=O)(=O)N2C[C@H](C3CC3)[C@@H](N)C2)cc1F : INHIBITION at minimum 20%?
Resp: rule met

Req: Evaluate O=C1CC2(CCN(c3nncs3)C2)CN1c1cncnc1 (stereo unspecified) : INHIBITION at minimum 20%?
Resp: rule not met

Req: Evaluate c1cncc(C[C@H]2[C@H](N3CCOCC3)CCN2Cc2nccs2)c1 : INHIBITION at minimum 20%?
Resp: rule not met

Req: Evaluate CN1CC(=O)N(c2cccc(F)c2)CC12CCN(Cc1cnn(C)c1)C2 (stereo unspecified) : INHIBITION at minimum 20%?
Resp: rule not met

Req: Evaluate Cc1nc(C(=O)NS(=O)(=O)c2cccc(C#N)c2)cs1 : INHIBITION at minimum 20%?
Resp: rule met

Req: Evaluate O=C1COC2(CCN(Cc3cccs3)CC2)CN1c1ccsc1 : INHIBITION at minimum 20%?
Resp: rule met

Req: Evaluate COc1ccc(C(=O)NS(=O)(=O)c2cccc(C#N)c2)cc1 : INHIBITION at minimum 20%?
Resp: rule not met

Req: Evaluate CNC(=O)c1c(C)cccc1NCc1noc(C2CC2)n1 : INHIBITION at minimum 20%?
Resp: rule met

Req: Evaluate Cc1ccc(N2CCCC(NCc3cccc4c3OCO4)C2)nn1 (stereo unspecified) : INHIBITION at minimum 20%?
Resp: rule not met

Req: Evaluate CN(C)CCO[C@H]1CN(Cc2ccoc2)[C@@H]2COC[C@H]12 : INHIBITION at minimum 20%?
Resp: rule not met

Req: Evaluate Cc1nccn1CC1CCCN1S(=O)(=O)Cc1cccc(F)c1 (stereo unspecified) : INHIBITION at minimum 20%?
Resp: rule not met

Req: Evaluate O=C1COC2(CCN(Cc3ccoc3)CC2)CN1c1ccsc1 : INHIBITION at minimum 20%?
Resp: rule met

Req: Evaluate CNC(=O)c1c(C)cccc1NCc1nnc(C2CC2)o1 : INHIBITION at minimum 20%?
Resp: rule met

Req: Evaluate O=C(Cc1ccccc1)N1CCN(Cc2noc(C3CC3)n2)CC1 : INHIBITION at minimum 20%?
Resp: rule not met

Req: Evaluate CCc1nc(NC(=O)N(C)Cc2ccoc2)nn1C : INHIBITION at minimum 20%?
Resp: rule met

Req: Evaluate O=C(Cn1cc(-c2ccccc2)ncc1=O)Nc1ccncc1 : INHIBITION at minimum 20%?
Resp: rule not met

Req: Evaluate O=C(CN1CCCC1c1nc2cc(F)ccc2[nH]1)NCc1ccccn1 (stereo unspecified) : INHIBITION at minimum 20%?
Resp: rule met

Req: Evaluate COCc1noc(C2(c3ccc(F)cc3)CCOCC2)n1 : INHIBITION at minimum 20%?
Resp: rule not met

Req: Evaluate CCS(=O)(=O)N1Cc2cncn2CC(C(=O)NCC2CC2)C1 (stereo unspecified) : INHIBITION at minimum 20%?
Resp: rule met

Req: Evaluate CNC(=O)c1c(C)cccc1NCC(=O)Nc1cc(C)nn1C : INHIBITION at minimum 20%?
Resp: rule not met

The values you see were collected from ChEMBL document CHEMBL4513216.
